target: E3 ubiquitin-protein ligase XIAP (Homo sapiens, UniProt P98170); experiment: Binding affinity to XIAP linker BIR2-BIR3 domain site 1 by fluorescence polarization assay
Sequence (P98170 whole entry, the tested form may be a part): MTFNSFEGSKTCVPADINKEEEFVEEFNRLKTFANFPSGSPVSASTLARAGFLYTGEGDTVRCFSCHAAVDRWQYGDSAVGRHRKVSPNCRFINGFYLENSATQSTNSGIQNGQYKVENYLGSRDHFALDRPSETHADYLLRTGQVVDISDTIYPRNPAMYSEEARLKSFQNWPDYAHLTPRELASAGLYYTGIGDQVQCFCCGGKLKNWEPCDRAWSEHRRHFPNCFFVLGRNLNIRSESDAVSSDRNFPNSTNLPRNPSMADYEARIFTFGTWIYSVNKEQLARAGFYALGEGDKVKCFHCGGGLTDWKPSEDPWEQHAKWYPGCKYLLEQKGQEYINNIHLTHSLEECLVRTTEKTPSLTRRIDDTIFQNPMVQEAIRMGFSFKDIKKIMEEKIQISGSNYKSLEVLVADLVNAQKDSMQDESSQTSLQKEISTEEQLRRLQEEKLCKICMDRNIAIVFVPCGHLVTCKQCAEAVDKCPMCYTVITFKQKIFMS
measurement name: IC50 (nM)
// note: answer is a bare numeric in nM

Asked: Param readout = IC50; param system = E3 ubiquitin-protein ligase XIAP (Homo sapiens, UniProt P98170); param query = `CN[C@@H](C)C(=O)N[C@H]1CCCNC(=O)[C@H](Cc2ccccc2)NC(=O)[C@@H]2CCCN2C(=O)[C@@H](NC(=O)[C@H](C)NC)CCCNC(=O)[C@H](Cc2ccccc2)NC(=O)[C@@H]2CCCN2C1=O` ; response: value
Given back: 1

---

I'd be grateful if you could share measured Ki for these entries.
target: Baculoviral IAP repeat-containing protein 2 (Homo sapiens); assay: Binding affinity to cIAP1 BIR3 domain by fluorescence polarization assay
Sequence (Q13490 whole entry, the tested form may be a part): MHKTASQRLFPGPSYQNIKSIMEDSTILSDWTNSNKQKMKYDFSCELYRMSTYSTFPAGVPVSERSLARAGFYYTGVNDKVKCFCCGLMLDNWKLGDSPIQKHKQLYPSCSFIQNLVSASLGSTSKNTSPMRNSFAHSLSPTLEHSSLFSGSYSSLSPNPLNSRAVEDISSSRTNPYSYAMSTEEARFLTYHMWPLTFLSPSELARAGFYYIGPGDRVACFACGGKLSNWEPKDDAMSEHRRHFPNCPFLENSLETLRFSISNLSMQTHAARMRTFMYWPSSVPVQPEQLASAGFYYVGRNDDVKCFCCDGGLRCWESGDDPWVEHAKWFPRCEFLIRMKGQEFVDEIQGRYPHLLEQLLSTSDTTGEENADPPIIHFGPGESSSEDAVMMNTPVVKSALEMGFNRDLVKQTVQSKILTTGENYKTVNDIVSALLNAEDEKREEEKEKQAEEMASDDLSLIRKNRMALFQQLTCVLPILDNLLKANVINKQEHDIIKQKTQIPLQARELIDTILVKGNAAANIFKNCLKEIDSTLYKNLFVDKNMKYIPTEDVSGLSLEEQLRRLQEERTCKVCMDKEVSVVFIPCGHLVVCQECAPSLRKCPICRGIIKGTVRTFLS
// note: answer is a bare numeric in nM

Asked: Given `CN[C@@H](C)C(=O)N[C@H]1CCCCn2cc(nn2)[C@H](Cc2ccccc2)NC(=O)[C@@H]2CCCN2C(=O)[C@@H](NC(=O)[C@H](C)NC)CCCCn2cc(nn2)[C@H](Cc2ccccc2)NC(=O)[C@@H]2CCCN2C1=O` , state its recorded Ki.
Given back: 161

Asked: Given `CN[C@@H](C)C(=O)N[C@H]1CCCNC(=O)[C@H](Cc2ccccc2)NC(=O)[C@@H]2CCCN2C(=O)[C@@H](NC(=O)[C@H](C)NC)CCCNC(=O)[C@H](Cc2ccccc2)NC(=O)[C@@H]2CCCN2C1=O` , state its recorded Ki.
Given back: 84

---

biological target: E3 ubiquitin-protein ligase XIAP (Homo sapiens); experiment: Binding affinity to XIAP linker BIR2-BIR3 domain site 2 by fluorescence polarization assay
measurement name: IC50 (nM)
// note: answer is a bare numeric in nM

Asked: Param readout = IC50; param system = E3 ubiquitin-protein ligase XIAP (Homo sapiens); param query = `CN[C@@H](C)C(=O)N[C@H]1CCCNC(=O)[C@H](Cc2ccccc2)NC(=O)[C@@H]2CCCN2C(=O)[C@@H](NC(=O)[C@H](C)NC)CCCNC(=O)[C@H](Cc2ccccc2)NC(=O)[C@@H]2CCCN2C1=O` ; response: value
Given back: 481
